system: Candida albicans; test: Antifungal activity against Candida albicans ATCC 90028 by sphingolipid reversal assay in presence of 30 ug/mL stearylamine; format: functional, organism-based
reported-metric: log10 IC50 (log10 of the value in µg/mL)
The common logarithm of IC50 in µg/mL is what is listed.

>  <chemical-string>
CCCCCCCCCCCCC#CCCCCC(=O)O

>  <system>
Candida albicans

>  <log10 IC50>
1.54

$$$$

Each compound below has a recorded value; state its log10 IC50.
1. CCCCCCCCCCCC#CCCCCC(=O)O
2. C[C@@H]1[C@H](O)[C@@H](C)/C=C/C=C/C=C/C=C/C=C/C=C/C=C/[C@H](O[C@@H]2O[C@H](C)[C@@H](O)[C@H](N)[C@@H]2O)C[C@@H]2O[C@](O)(C[C@@H](O)C[C@@H](O)[C@H](O)CC[C@@H](O)C[C@@H](O)CC(=O)O[C@H]1C)C[C@H](O)[C@H]2C(=O)O
3. Nc1nc(=O)[nH]cc1F
4. OC(Cn1cncn1)(Cn1cncn1)c1ccc(F)cc1F

[1.48, -0.19, -0.60, -0.12]
